- Tested on: Solanum nigrum (SOLNI)
- testDescription: Example B post-emergence herbicidal activity, glasshouse pot test
- Format: in vivo
- reportedConditions: 312 h, rate 1000 g/ha, evaluated after 13 days, read-out: herbicidal damage SOLNI (100=total damage to plant; 0=no damage to plant)
Response field label takes T when pest or weed control at 1000 g/ha is strictly below 40% and F in all other cases.

>  <compound>
Cc1ccc(-c2cc(C)c(C3=C(O)CC(CC4CCOCC4)CC3=O)c(C)c2)cc1 (centres unmarked)

>  <classification>
F

$$$$
>  <compound>
Cc1ccc(-c2cccnc2OCC2CC2)cc1C1=C(O)CC(CC2CCOCC2)CC1=O (centres unmarked)

>  <classification>
T

$$$$
>  <compound>
Cc1cc(-c2ccc(Cl)cc2)cc(C)c1C1=C(O)CC(CC2CCOCC2)CC1=O (centres unmarked)

>  <classification>
F

$$$$
>  <compound>
COCC1COC(CC2CC(=O)C(c3cc(-c4ccc(Cl)cc4)ccc3C)=C(O)C2)O1 (centres unmarked)

>  <classification>
T

$$$$
>  <compound>
CCc1cc(-c2ccc(C)cc2)cc(CC)c1C1=C(O)CC(CC2CCOCC2)CC1=O (centres unmarked)

>  <classification>
F

$$$$
>  <compound>
CCc1ccc(-c2ccc(Cl)cc2)cc1C1=C(O)CC(CC2OCCO2)CC1=O (centres unmarked)

>  <classification>
T

$$$$
>  <compound>
Cc1ccc(-c2ccc(OC(F)(F)F)cc2)cc1C1=C(O)CC(CC2CCOCC2)CC1=O (centres unmarked)

>  <classification>
T

$$$$

----------
- Test system: Avena fatua (AVEFA)
- testDescription: Example B post-emergence herbicidal activity, glasshouse pot test
- Assay type: in vivo
- reportedConditions: 312 h, rate 1000 g/ha, evaluated after 13 days, read-out: herbicidal damage AVEFA (100=total damage to plant; 0=no damage to plant)
Response key: criterion met means pest or weed control at 1000 g/ha >= 60%; criterion not met means pest or weed control at 1000 g/ha < 60%.

>  <molecule>
Cc1ccc(-c2ccc(Cl)cc2)cc1C1=C(O)CC(CC2OCC(CC3CCOCC3)O2)CC1=O (centres unmarked)

>  <classification>
criterion not met

$$$$
>  <molecule>
Cc1ccc(-c2ccc(Cl)cc2)cc1C1=C(O)CC(CC2OCC3(CC3)CO2)CC1=O (centres unmarked)

>  <classification>
criterion not met

$$$$
>  <molecule>
Cc1cc(-c2ccc(C(F)(F)F)cc2)cc(C)c1C1=C(O)CC(CC2CCOCC2)CC1=O (centres unmarked)

>  <classification>
criterion not met

$$$$
>  <molecule>
Cc1cc(-c2ccccc2)cc(C)c1C1=C(O)CC(CC2CCOCC2)CC1=O (centres unmarked)

>  <classification>
criterion met

$$$$
>  <molecule>
Cc1cc(-c2ccc(Cl)cc2)cc(C)c1C1=C(O)CC(CC2CCOCC2)CC1=O (centres unmarked)

>  <classification>
criterion met

$$$$
>  <molecule>
Cc1ccc(-c2ccc(F)c(F)c2)cc1C1=C(O)CC(CC2CCOCC2)CC1=O (centres unmarked)

>  <classification>
criterion met

$$$$
>  <molecule>
Cc1ccc(-c2ccc(Cl)cc2)cc1C1=C(O)CC(CC2OCCCO2)CC1=O (centres unmarked)

>  <classification>
criterion met

$$$$

----------
- System: Avena fatua (AVEFA)
- testDescription: Example A post-emergence herbicidal activity, glasshouse pot test
- Format: in vivo
- reportedConditions: 360 h, rate 500 g/ha, evaluated 15 days after spraying, read-out: herbicidal damage AVEFA (100=total damage to plant; 0=no damage to plant)
Listed here: items and their measured pest or weed control at 500 g/ha.

>  <compound>
CCc1ccc(-c2ccc(Cl)cc2)cc1C1=C(O)CC(C(C)C2CCOCC2)CC1=O (stereo not drawn) [Compound A-13]

>  <pest or weed control at 500 g/ha / %>
30

$$$$
>  <compound>
Cc1cc(C)c(C2=C(O)CC(CC3CCOC3)CC2=O)c(C)c1 (stereo not drawn) [Compound A-1]

>  <pest or weed control at 500 g/ha / %>
80

$$$$
>  <compound>
CCc1ccc(-c2ccc(Cl)cc2)cc1C1=C(O)CC(CC2CCOC2)CC1=O (stereo not drawn) [Compound A-4]

>  <pest or weed control at 500 g/ha / %>
70

$$$$
>  <compound>
Cc1cc(C)c(C2=C(O)CC(CC3CCOCC3)CC2=O)c(C)c1 (stereo not drawn) [Compound A-9]

>  <pest or weed control at 500 g/ha / %>
70

$$$$
>  <compound>
CCc1cc(C)cc(CC)c1C1=C(O)CC(CC2OCCCO2)CC1=O (stereo not drawn) [Compound A-7]

>  <pest or weed control at 500 g/ha / %>
100

$$$$
>  <compound>
CCc1cc(CC)c(C2=C(O)CC(C(C)C3CCOCC3)CC2=O)c(CC)c1 (stereo not drawn) [Compound A-12]

>  <pest or weed control at 500 g/ha / %>
80

$$$$
>  <compound>
CCc1cc(C)cc(CC)c1C1=C(O)CC(CC2OCC(C)(C)CO2)CC1=O (stereo not drawn) [Compound A-8]

>  <pest or weed control at 500 g/ha / %>
50

$$$$
>  <compound>
Cc1ccc(-c2ccc(Cl)cc2)cc1C1=C(O)CC(CC2CCOC2)CC1=O (stereo not drawn) [Compound A-2]

>  <pest or weed control at 500 g/ha / %>
40

$$$$
>  <compound>
CCc1cc(C)cc(CC)c1C1=C(O)CC(CC2CCOC2)CC1=O (stereo not drawn) [Compound A-3]

>  <pest or weed control at 500 g/ha / %>
80

$$$$

----------
- System: Amaranthus retroflexus (AMARE)
- testDescription: Example B pre-emergence herbicidal activity, glasshouse pot test
- Assay type: in vivo
- reportedConditions: 312 h, rate 1000 g/ha, evaluated after 13 days, read-out: herbicidal damage AMARE (100=total damage to plant; 0=no damage to plant)
Listed here: items and their measured pest or weed control at 1000 g/ha.
measuredQuantity: pest or weed control at 1000 g/ha (%)

>  <compound>
CCc1ccc(-c2ccc(Cl)cc2)cc1C1=C(O)CC(CC2OCCO2)CC1=O (stereo not shown) [Compound A-45]

>  <measuredQuantity>
pest or weed control at 1000 g/ha

>  <unitSymbol>
%

>  <observedValue>
0

$$$$
>  <compound>
Cc1ccc(-c2ccc(OC(F)(F)F)cc2)cc1C1=C(O)CC(CC2CCOCC2)CC1=O (stereo not shown) [Compound A-29]

>  <measuredQuantity>
pest or weed control at 1000 g/ha

>  <unitSymbol>
%

>  <observedValue>
50

$$$$
>  <compound>
COCC1COC(CC2CC(=O)C(c3cc(-c4ccc(Cl)cc4)ccc3C)=C(O)C2)O1 (stereo not shown) [Compound A-63]

>  <measuredQuantity>
pest or weed control at 1000 g/ha

>  <unitSymbol>
%

>  <observedValue>
20

$$$$
>  <compound>
Cc1ccc(-c2ccc(F)cc2)cc1C1=C(O)CC(CC2CCOCC2)CC1=O (stereo not shown) [Compound A-39]

>  <measuredQuantity>
pest or weed control at 1000 g/ha

>  <unitSymbol>
%

>  <observedValue>
0

$$$$

----------
- Test system: Solanum nigrum (SOLNI)
- testDescription: Example B post-emergence herbicidal activity, glasshouse pot test
- Type: in vivo
- reportedConditions: 312 h, rate 1000 g/ha, evaluated after 13 days, read-out: herbicidal damage SOLNI (100=total damage to plant; 0=no damage to plant)
- Experimental: Seeds of a variety of test species were sown in standard soil in pots. […] After 13 days for pre and post-emergence, the test was evaluated (100=total damage to plant; 0=no damage to plant). […]

>  <molecule>
Cc1cc(-c2ccc(C)c(C3=C(O)CC(CC4CCOCC4)CC3=O)c2)ccc1F (stereo not drawn)

>  <pest or weed control at 1000 g/ha>
0%

$$$$
>  <molecule>
Cc1ccc(-c2ccc(Cl)cc2)cc1C1=C(O)CC(CC2OCC(CC3CCOCC3)O2)CC1=O (stereo not drawn)

>  <pest or weed control at 1000 g/ha>
0%

$$$$
>  <molecule>
CCc1cc(-c2ccc(Cl)cc2)cc(CC)c1C1=C(O)CC(CC2CCOCC2)CC1=O (stereo not drawn)

>  <pest or weed control at 1000 g/ha>
0%

$$$$

----------
- Tested on: Solanum nigrum (SOLNI)
- testDescription: Example B post-emergence herbicidal activity, glasshouse pot test
- Format: in vivo
- reportedConditions: 312 h, rate 1000 g/ha, evaluated after 13 days, read-out: herbicidal damage SOLNI (100=total damage to plant; 0=no damage to plant)

>  <compound>
Cc1ccc(-c2ccc(Cl)cc2)cc1C1=C(O)CC(CC2OCCO2)CC1=O (centres unmarked)

>  <pest or weed control at 1000 g/ha>
20%

$$$$
>  <compound>
Cc1ccc(-c2ccc(Cl)cc2)cc1C1=C(O)CC(CC2OCC(C3CCOCC3)O2)CC1=O (centres unmarked)

>  <pest or weed control at 1000 g/ha>
0%

$$$$
>  <compound>
Cc1cc(-c2ccc(C(F)(F)F)cc2)cc(C)c1C1=C(O)CC(CC2CCOCC2)CC1=O (centres unmarked)

>  <pest or weed control at 1000 g/ha>
20%

$$$$
>  <compound>
Cc1ccc(-c2ccc3c(c2)OCCO3)cc1C1=C(O)CC(CC2CCOCC2)CC1=O (centres unmarked)

>  <pest or weed control at 1000 g/ha>
0%

$$$$
>  <compound>
Cc1ccc(-c2ccc(Cl)cc2)cc1C1=C(O)CC(CC2OCC3(CCOCC3)O2)CC1=O (centres unmarked)

>  <pest or weed control at 1000 g/ha>
0%

$$$$
>  <compound>
CCC1(CC)COC(CC2CC(=O)C(c3cc(-c4ccc(Cl)cc4)ccc3C)=C(O)C2)OC1 (centres unmarked)

>  <pest or weed control at 1000 g/ha>
0%

$$$$
>  <compound>
Cc1ccc(-c2ccc(Cl)cc2)cc1C1=C(O)CC(CC2O[C@H]3COC[C@H]3O2)CC1=O (some centres unmarked)

>  <pest or weed control at 1000 g/ha>
0%

$$$$
>  <compound>
Cc1ccc(-c2ccc3c(c2)OCO3)cc1C1=C(O)CC(CC2CCOCC2)CC1=O (centres unmarked)

>  <pest or weed control at 1000 g/ha>
0%

$$$$
